Tested on: COLO 205 colon
test protocol: NCI tumour cell line growth inhibition, 48 h
Listed next: entries and their corresponding TGI.
readout: TGI (µM)

O=c1cc(NNc2cccc3ccccc23)[nH]c(=O)[nH]1 :: 31.3
Nc1cccc(-c2cc(=O)c3cc4c(cc3[nH]2)OCO4)c1 :: 5.93
ClC1=NSSC1(Cl)Cl :: 30.8
CC(C)=CCC[C@@H](C)C1=C(O)C(N[C@H](C)c2ccccc2)=C(C)C(=O)C1=O :: 20
CC1OC(OC2C(O)CC(OC3C(O)CC(OC4CCC5(C)C(CCC6C5CCC5(C)C(C7=CC(=O)OC7)C(O)CC65O)C4)OC3C)OC2C)CC(O)C1O (stereo not given) :: 0.844
CN1C2C=CC(=O)C1C1C(=O)N(c3ccccc3)C(=O)C12 (stereo not given) :: 22

// data source = PubChem BioAssay (NCI)
